Reported mass density values for a set of compounds
details: 313.15 K; 100.5 kPa; Liquid; Vibrating tube method

>  <smiles>
CCCCCCn1cc[n+](C)c1C.O=S(=O)([N-]S(=O)(=O)C(F)(F)F)C(F)(F)F

>  <mass density / kg/m3>
1344.1

$$$$
>  <smiles>
CCCCn1cc[n+](C)c1C.O=S(=O)([N-]S(=O)(=O)C(F)(F)F)C(F)(F)F

>  <mass density / kg/m3>
1405.3

$$$$
>  <smiles>
CCC[n+]1ccn(C)c1C.O=S(=O)([N-]S(=O)(=O)C(F)(F)F)C(F)(F)F

>  <mass density / kg/m3>
1440.7

$$$$
>  <smiles>
CCn1cc[n+](C)c1C.O=S(=O)([N-]S(=O)(=O)C(F)(F)F)C(F)(F)F

>  <mass density / kg/m3>
1476.9

$$$$

Data provenance: the NIST ThermoML archive (doi:10.1021/acs.jced.7b01033)
